- Tested on: Escherichia coli
- Method: Minimum inhibitory concentration against Escherichia coli H560 in vitro.
- Assay type: functional
Rule for this label: rule met means MIC is less than 0.03 µg/mL; rule not met means MIC is at least 0.03 µg/mL.

>  <Compound>
Cl.NC1CCN(c2c(F)cc3c(=O)c(C(=O)O)cn(C4CC4)c3c2F)C1 (centres undefined)

>  <Classification>
rule met

$$$$
>  <Compound>
Cl.NC1CCN(c2c(F)cc3c(=O)c(C(=O)O)cn(C4CC4)c3c2Cl)C1 (centres undefined) [CLINAFLOXACIN HYDROCHLORIDE]

>  <Classification>
rule met

$$$$
>  <Compound>
CC1COc2c(N3CCC(N)C3)c(F)cc3c(=O)c(C(=O)O)cn1c23.Cl (centres undefined)

>  <Classification>
rule not met

$$$$
>  <Compound>
CCNCC1CCN(c2c(F)cc3c(=O)c(C(=O)O)cn(C4CC4)c3c2[N+](=O)[O-])C1.Cl (centres undefined)

>  <Classification>
rule not met

$$$$
>  <Compound>
CC(C)NCC1CCN(c2nc3c(cc2F)c(=O)c(C(=O)O)cn3C2CC2)C1 (centres undefined)

>  <Classification>
rule not met

$$$$
>  <Compound>
NCC1CCN(c2cc3c(cc2F)c(=O)c(C(=O)O)cn3C2CC2)C1 (centres undefined)

>  <Classification>
rule met

$$$$
>  <Compound>
O=C(O)c1cn(C2CC2)c2c(Cl)c(N3CCNCC3)c(F)cc2c1=O

>  <Classification>
rule met

$$$$
>  <Compound>
O=C(O)c1cn(C2CC2)c2cc(N3CCNCC3)c(F)cc2c1=O

>  <Classification>
rule met

$$$$
>  <Compound>
Cl.NC1CCN(c2c(F)cc3c(=O)c(C(=O)O)cn(C4CC4)c3c2[N+](=O)[O-])C1 (centres undefined)

>  <Classification>
rule not met

$$$$
>  <Compound>
CCNCC1CCN(c2c(F)cc3c(=O)c(C(=O)O)cn(C4CC4)c3c2N)C1.Cl.Cl (centres undefined)

>  <Classification>
rule not met

$$$$
>  <Compound>
NC1CCN(c2nc3c(cc2F)c(=O)c(C(=O)O)cn3C2CC2)C1 (centres undefined)

>  <Classification>
rule met

$$$$
>  <Compound>
CN(C)CC1CCN(c2cc3c(cc2F)c(=O)c(C(=O)O)cn3C2CC2)C1 (centres undefined)

>  <Classification>
rule not met

$$$$
>  <Compound>
CNCC1CCN(c2cc3c(cc2F)c(=O)c(C(=O)O)cn3C2CC2)C1 (centres undefined)

>  <Classification>
rule not met

$$$$
>  <Compound>
Cl.O=C(O)c1cn(C2CC2)c2c([N+](=O)[O-])c(N3CCNCC3)c(F)cc2c1=O

>  <Classification>
rule not met

$$$$

These entries and their values trace back to ChEMBL document CHEMBL1124270.
